Target: Acetylcholinesterase (Homo sapiens, UniProt P22303)
Sequence (P22303 whole entry): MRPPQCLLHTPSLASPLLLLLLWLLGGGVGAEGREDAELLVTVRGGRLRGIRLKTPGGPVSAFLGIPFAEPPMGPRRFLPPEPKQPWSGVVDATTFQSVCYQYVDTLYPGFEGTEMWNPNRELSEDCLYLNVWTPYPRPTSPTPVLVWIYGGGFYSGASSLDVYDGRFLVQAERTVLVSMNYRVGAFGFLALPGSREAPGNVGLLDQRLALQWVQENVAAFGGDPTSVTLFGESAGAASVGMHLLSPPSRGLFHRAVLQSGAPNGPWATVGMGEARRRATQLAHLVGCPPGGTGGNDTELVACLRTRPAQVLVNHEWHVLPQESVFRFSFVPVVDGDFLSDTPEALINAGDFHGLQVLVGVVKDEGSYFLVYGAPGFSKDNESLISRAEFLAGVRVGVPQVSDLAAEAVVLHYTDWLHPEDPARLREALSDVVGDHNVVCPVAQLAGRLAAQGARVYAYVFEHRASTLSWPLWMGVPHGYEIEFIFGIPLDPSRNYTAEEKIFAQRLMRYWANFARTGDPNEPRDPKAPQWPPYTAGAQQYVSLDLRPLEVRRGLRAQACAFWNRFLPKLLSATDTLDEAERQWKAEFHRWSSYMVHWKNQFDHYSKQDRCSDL
Experiment: Inhibition of recombinant human AChE assessed as residual activity at 100 uM using acetylthiocholine iodide as substrate preincubated for 1 to 30 mins followed by substrate addition by Ellman's method relative to control
Details: time 1-30 min
Rule: Yes for Activity not less than 70%, No for anything less.

CCCCN(CCCC1CCNc2ccccc21)CCC1CCCCCC1 (centres undefined)    No
CCCCN(CCCc1ccc2ccccc2c1)CCC1CCCCCC1    No
CN1CCN(CCC2CCCCCC2)C[C@@H]1Cc1c[nH]c2ccccc12    No
CN(C)c1ccc(/C=C/CN(CCCc2c[nH]c3ccccc23)CCC2CCCCCC2)cc1    No

Kindly consider the entry below.
*Q* Is it the case that `CCCCN(CCC1CCCCCC1)Cc1c[nH]c2ncccc12` has Activity reaching or exceeding 70%?
*A* No

* * *

Target: Cholinesterase (Homo sapiens)
pIC50: −log10 of the molar value.
Category key, based on recorded pIC50: class A: < 7; class B: ≥ 7 and < 8; class C: ≥ 8

Sample answers from the record:
CCCCN(CCC1CCCCCC1)Cc1cc2ccccc2cc1O    class B
CN(CCC1CCCCCC1)Cc1cccc2[nH]ccc12    class A
CCCCN(CCc1c[nH]c2ccccc12)CCC1CCCCCC1    class C
CCCCN(CCC1CCCCCC1)Cc1c[nH]c2cc(Br)ccc12    class C
CN(CCC1CCCCCC1)Cc1c[nH]c2ccccc12    class B

*Q* Exam item: assign CCCCN(CCCc1c[nH]c2ccccc12)CCC1CCC(N(C)C)CC1 (stereo in doubt; 33a) to the correct category.
*A* class A

*Q* Further, for `CN(CCC1CCN(Cc2ccccc2)CC1)Cc1c[nH]c2ccccc12` ?
*A* class A

* * *

Target: Acetylcholinesterase (Mus musculus, UniProt P21836)
Sequence (P21836 whole entry): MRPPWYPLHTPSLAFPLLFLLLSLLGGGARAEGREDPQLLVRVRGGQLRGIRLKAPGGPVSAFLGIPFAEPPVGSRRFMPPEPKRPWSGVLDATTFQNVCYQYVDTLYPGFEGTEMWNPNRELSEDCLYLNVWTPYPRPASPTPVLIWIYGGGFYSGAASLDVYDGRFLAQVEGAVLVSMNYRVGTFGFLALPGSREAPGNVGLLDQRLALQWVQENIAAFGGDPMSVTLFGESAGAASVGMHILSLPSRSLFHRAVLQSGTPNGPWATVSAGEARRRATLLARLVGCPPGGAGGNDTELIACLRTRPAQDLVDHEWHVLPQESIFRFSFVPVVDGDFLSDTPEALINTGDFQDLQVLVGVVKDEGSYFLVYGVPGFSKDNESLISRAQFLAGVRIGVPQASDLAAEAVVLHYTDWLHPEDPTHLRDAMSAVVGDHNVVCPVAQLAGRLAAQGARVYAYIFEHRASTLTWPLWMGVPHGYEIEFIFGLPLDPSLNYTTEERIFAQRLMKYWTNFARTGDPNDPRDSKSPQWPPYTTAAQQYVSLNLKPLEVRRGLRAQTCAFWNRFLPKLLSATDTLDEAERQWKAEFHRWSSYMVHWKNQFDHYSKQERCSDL
Test: Inhibition of mouse recombinant AChE assessed as reduction in cholinesterase activity using acetylthiocholine iodide as substrate preincubated for 1 to 30 mins followed by substrate addition by Ellman's method
measured-metric: IC50 (µM)
Give your result in µM as a bare value.

CCCCN1CCN(CCCC2CCCCCC2)C[C@@H]1Cc1c[nH]c2ccccc12    10.3
CCCCN(C)[C@@H](Cc1c[nH]c2ccccc12)CN(C)CCC1CCCCCC1    23.4
CCCCN1CN(CCC2CCCCCC2)C[C@@H]1Cc1c[nH]c2ccccc12    11

*Q* Enter reported IC50 observed with Acetylcholinesterase (Mus musculus, UniProt P21836) for `CCCCN[C@H](CNCCC1CCCCCC1)Cc1c[nH]c2ccccc12`
*A* 12.4

* * *

Biological target: Acetylcholinesterase (Homo sapiens, UniProt P22303)
Assay: Inhibition of recombinant human AChE using acetylthiocholine iodide as substrate preincubated for 1 to 30 mins followed by substrate addition by Ellman's method
measured-metric: pIC50
By convention, pIC50 is the negative base-10 log of a molar concentration.

*Q* Enter reported pIC50 observed with Acetylcholinesterase (Homo sapiens, UniProt P22303) for `CCCCN(CCOc1cccc2c(OC(=O)N(C)C)cccc12)CCC1CCCCCC1`
*A* 7.32

*Q* Further, for `CCCCN(CCC1CCCCCC1)Cc1cn(OC(=O)N(C)C)c2ccccc12` ?
*A* 6.82

*Q* Further, for `CN(CCC1CCCCCC1)Cc1c[nH]c2ccccc12` ?
*A* 4.60

*Q* Further, for `CCCCN(CCC1CCCCCC1)Cc1cc2ccccc2cc1O` ?
*A* 4.73

*Q* Further, for CCCC[N+](C)(CCCc1c[nH]c2ccccc12)CCC1CCCCCC1 (configuration not stated) ?
*A* 4.63

*Q* Further, for `CN(CCC1CCN(Cc2ccccc2)CC1)Cc1c[nH]c2ccccc12` ?
*A* 4.47

*Q* Further, for `CCCCN(CCc1c[nH]c2c(OC(=O)C(C)C)cccc12)CCC1CCCCCC1` ?
*A* 5.86

*Q* Further, for `CCCCN(CCCc1c[nH]c2ccccc12)CCC1CCN(Cc2ccccc2)CC1` ?
*A* 5.11

*Q* Further, for `CCCCN(CCC1CCCCCC1)Cc1ccc(OC(=O)N(C)C)c2ccccc12` ?
*A* 6.99

*Q* Further, for `CCCCN(CCc1c[nH]c2cc(O)ccc12)CCC1CCCCCC1` ?
*A* 4.15

*Q* Further, for CN(C)C1CCC(CCN(CCCc2c[nH]c3ccccc23)CCC2CCCCCC2)CC1 (stereo in doubt; 32a) ?
*A* 4.90

*Q* Further, for CN(C)C1CCC(CCN(CCCc2c[nH]c3ccccc23)CCC2CCCCCC2)CC1 (stereo in doubt; 32b) ?
*A* 5.07

* * *

Parameter pIC50, tested on Cholinesterase (Homo sapiens), listed per item.
By convention, pIC50 is the negative base-10 log of a molar concentration.

CN1CCN(CCC2CCCCCC2)C[C@@H]1Cc1c[nH]c2ccccc12    7.98
CCCCN(CCOc1ccc2ccc(OC(=O)N(C)C)cc2c1)CCC1CCCCCC1    7.93
CCCCN(CCC1CCCCCC1)Cc1c[nH]c2cc(C#N)ccc12    7.08
CCCCN(CCC1CCCCCC1)Cc1c[nH]c2ccccc12    7.88
CN(CCC1CCCCCC1)Cc1c(-c2nnn[nH]2)[nH]c2ccccc12    6.03
CCCC[N+](C)(CCCc1c[nH]c2ccccc12)CCC1CCCCCC1 (stereo unspecified)    8.64

*Q* For the molecule shown here, CCCCN(CCC1CCCCCC1)CCC1CCc2ccccc21 (stereo unspecified) , give the reported pIC50.
*A* 8.19

*Q* Further, for `CCCCN(CCC1CCCCCC1)Cc1cc(O)c2ccccc2c1` ?
*A* 8.33

*Q* Further, for `CCCCN1CCN(CCCC2CCCCCC2)C[C@@H]1Cc1c[nH]c2ccccc12` ?
*A* 8.30

*Q* Further, for `CCCCN(CCC1CCCCCC1)Cc1ccc(OC(=O)N(C)C)c2ccccc12` ?
*A* 8.72

*Q* Further, for CCCC[N+]([O-])(CCc1c[nH]c2ccccc12)CCC1CCCCCC1 (stereo unspecified) ?
*A* 6.97

* * *

// reported Activity for each item listed
Molecular target: Acetylcholinesterase (Homo sapiens, UniProt P22303)
Test: Inhibition of recombinant human AChE assessed as residual activity at 100 uM using acetylthiocholine iodide as substrate preincubated for 1 to 30 mins followed by substrate addition by Ellman's method relative to control
Settings: time 1-30 min
Give your result in % as a bare value.

CCCCN(CCc1c[nH]c2ccc(O)cc12)CCC1CCCCCC1    79
CCCC[N+]([O-])(CCc1c[nH]c2ccccc12)CCC1CCCCCC1 (centres undefined)    86
CCCCN(CCc1c[nH]c2c(O)cccc12)CCC1CCCCCC1    69

*Q* Enter reported Activity observed with Acetylcholinesterase (Homo sapiens, UniProt P22303) for `CCCCN(CCCc1cc2ccccc2[nH]1)CCC1CCCCCC1`
*A* 74

* * *

Molecular target: Cholinesterase (Homo sapiens, UniProt P06276)
Sequence (P06276 whole entry): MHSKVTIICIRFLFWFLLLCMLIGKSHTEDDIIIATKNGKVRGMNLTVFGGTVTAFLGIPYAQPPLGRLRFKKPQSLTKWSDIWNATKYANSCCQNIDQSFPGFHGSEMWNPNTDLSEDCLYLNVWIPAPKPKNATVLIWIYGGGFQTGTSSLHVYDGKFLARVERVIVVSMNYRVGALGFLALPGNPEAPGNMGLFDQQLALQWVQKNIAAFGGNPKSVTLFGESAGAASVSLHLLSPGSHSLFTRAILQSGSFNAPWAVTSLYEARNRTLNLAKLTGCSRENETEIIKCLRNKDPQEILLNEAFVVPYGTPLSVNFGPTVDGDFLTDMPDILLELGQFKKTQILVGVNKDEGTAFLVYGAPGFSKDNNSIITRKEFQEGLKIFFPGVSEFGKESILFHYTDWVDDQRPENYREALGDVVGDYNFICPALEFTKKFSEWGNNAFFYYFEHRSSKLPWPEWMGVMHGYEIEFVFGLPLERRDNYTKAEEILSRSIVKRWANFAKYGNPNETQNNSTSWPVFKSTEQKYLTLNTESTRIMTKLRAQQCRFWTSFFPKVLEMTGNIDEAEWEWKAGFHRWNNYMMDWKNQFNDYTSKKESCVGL
measured-metric: pIC50
By convention, pIC50 is the negative base-10 log of a molar concentration.

Some molecules with recorded pIC50:
CCCCN(CCc1c(-c2ccccc2O)[nH]c2ccccc12)CCC1CCCCCC1    7.77
CCCCN(CCc1c[nH]c2ccc(OC(=O)N(C)C)cc12)CCC1CCCCCC1    8.16
CCCCN(CCCc1c[nH]c2ccc(F)cc12)CCC1CCCCCC1    8.22

*Q* For the molecule shown here, c1ccc2c(c1)CCC2CCN(CCCc1c[nH]c2ccccc12)CCC1CCCCCC1 (centres undefined) , give the reported pIC50.
*A* 8.20
